Test: In vitro stability in rat plasma
Type: in vitro ADME
Starred links: 1 amine or outer side, 2 acyl side, 3 side chain; linkers in the order of their positions; H or OH if unused. Non-standard residues stand in square brackets, D forms with d. Residues, ends and D or L forms follow the SMILES beside them. *: point of attachment. Phe(4-Cl) = N[C@@H](Cc1ccc(Cl)cc1)C(=O)O; γGlu = O=C(O)[C@H](CCC(=O)[*:2])N[*:1]; NMeR = CN[C@@H](CCCNC(=N)N)C(=O)O; Tridecanoyl = CCCCCCCCCCCCC(=O)*; Cha = N[C@@H](CC1CCCCC1)C(=O)O; Nle = CCCC[C@H](N)C(=O)O; AEEA = NCCOCCOCC(=O)O; βAla = NCCC(=O)O
For each of the compounds below, state its remaining at 4 h, 5 μM.
Expressed in %, but write only the number.

For the compound CCCCCCCCCCCCC(=O)N[C@@H](CCC(=O)NCCOCCOCC(=O)NCCOCCOCC(=O)N[C@@H](CCC(N)=O)C(=O)N[C@@H](CCCNC(=N)N)C(=O)N1CCC[C@H]1C(=O)N(C)[C@@H](CCCNC(=N)N)C(=O)N[C@@H](CC(C)C)C(=O)N[C@@H](CO)C(=O)N[C@@H](Cc1c[nH]cn1)C(=O)N[C@@H](CCCCN)C(=O)NCC(=O)N1CCC[C@H]1C(=O)N[C@@H](CCCC)C(=O)N1CCC[C@@]1(C)C(=O)N[C@@H](Cc1ccc(Cl)cc1)C(=O)O)C(=O)O , report remaining at 4 h, 5 μM. 6

For the compound CCCCCCCCCCCCC(=O)N[C@@H](CCC(=O)NCCOCCOCC(=O)NCCOCCOCC(=O)N[C@@H](CCC(N)=O)C(=O)N[C@@H](CCCNC(=N)N)C(=O)N1CCC[C@H]1C(=O)N(C)[C@@H](CCCNC(=N)N)C(=O)N[C@@H](CC(C)C)C(=O)N[C@@H](CO)C(=O)N[C@@H](Cc1c[nH]cn1)C(=O)NCCC(=O)NCC(=O)N1CCC[C@H]1C(=O)N[C@@H](CCCC)C(=O)N1CCC[C@H]1C(=O)N[C@@H](Cc1ccc(Cl)cc1)C(=O)O)C(=O)O [compound 424] ({Tridecanoyl-γGlu-AEEA-AEEA}-QRP[NMeR]LSH[βAla]GP[Nle]P[Phe(4-Cl)]-OH) , report remaining at 4 h, 5 μM. 2

For the compound CCCCCCCCCCCCC(=O)N[C@@H](CCC(=O)NCCOCCOCC(=O)NCCOCCOCC(=O)N[C@@H](CCC(N)=O)C(=O)N[C@@H](CCCNC(=N)N)C(=O)N1CCC[C@H]1C(=O)N(C)[C@@H](CCCCNC(=N)N)C(=O)N[C@@H](CC(C)C)C(=O)N[C@@H](CO)C(=O)N[C@@H](Cc1c[nH]cn1)C(=O)N[C@@H](CCCCN)C(=O)NCC(=O)N1CCC[C@H]1C(=O)N[C@@H](CCCC)C(=O)N1CCC[C@H]1C(=O)N[C@@H](Cc1ccc2ccccc2c1)C(=O)O)C(=O)O , report remaining at 4 h, 5 μM. 52

For the compound CSCC[C@H](NC(=O)[C@@H](N)CS)C(=O)N1CCC[C@H]1C(=O)N[C@@H](CC(C)C)C(=O)N[C@@H](Cc1cnc[nH]1)C(=O)N[C@@H](CO)C(=O)N[C@@H](CCCNC(=N)N)C(=O)N[C@H](C(=O)N1CCC[C@H]1C(=O)N[C@@H](Cc1ccccc1)C(=O)N1CCC[C@H]1C(=O)O)C(C)C , report remaining at 4 h, 5 μM. 7

For the compound CCCCCCCCCCCCC(=O)N[C@@H](CCC(=O)NCCOCCOCC(=O)NCCOCCOCC(=O)N[C@@H](CCC(N)=O)C(=O)N[C@@H](CCCNC(=N)N)C(=O)N1CCC[C@H]1C(=O)N(C)[C@@H](CCCNC(=N)N)C(=O)N[C@@](C)(CC(C)C)C(=O)N[C@@H](CO)C(=O)N[C@@H](Cc1c[nH]cn1)C(=O)N[C@@H](CCCCN)C(=O)NCC(=O)N1CCC[C@H]1C(=O)N[C@@H](CCCC)C(=O)N1CCC[C@H]1C(=O)N[C@@H](Cc1ccc(Cl)cc1)C(=O)O)C(=O)O , report remaining at 4 h, 5 μM. 62

For the compound CCCC[C@H](NC(=O)[C@@H]1CCCN1C(=O)CNC(=O)[C@H](CCCCN)NC(=O)[C@H](Cc1c[nH]cn1)NC(=O)[C@H](CO)NC(=O)[C@H](CC1CCCCC1)NC(=O)[C@H](CCCNC(=N)N)N(C)C(=O)[C@@H]1CCCN1C(=O)[C@H](CCCNC(=N)N)NC(=O)[C@H](CCC(N)=O)NC(=O)[C@H](CCCNC(=N)N)NC(C)=O)C(=O)N1CCC[C@H]1C(=O)N[C@@H](Cc1ccc(Cl)cc1)C(=O)O [compound 66] (Ac-RQRP[NMeR][Cha]SHKGP[Nle]P[Phe(4-Cl)]-OH) , report remaining at 4 h, 5 μM. 2.4

For the compound CCCCCCCCCCCCCCC(=O)N[C@@H](CCC(=O)NCCOCCOCC(=O)NCCOCCOCC(=O)N[C@@H](CCC(N)=O)C(=O)N[C@@H](CCCNC(=N)N)C(=O)N1CCC[C@H]1C(=O)N(C)[C@@H](CCCNC(=N)N)C(=O)N[C@@H](CC(C)C)C(=O)N[C@@H](CO)C(=O)N[C@@H](Cc1c[nH]cn1)C(=O)N[C@@H](CCCCN)C(=O)NCC(=O)N1CCC[C@H]1C(=O)N[C@@H](CCCC)C(=O)N1CCC[C@H]1C(=O)N[C@@H](Cc1ccc(Cl)cc1)C(=O)O)C(=O)O , report remaining at 4 h, 5 μM. 75
